# assay.details: Cycloheximide Counterscreen for Small Molecule Inhibitors of Shiga Toxin; note: read at 38.3 µM for the half of the compounds with a filed dose
# experimental.setup: cell reporter, cycloheximide protein synthesis inhibition counterscreen; stronger effect = higher value
Screen size: about 300,000 compounds; about 37,000 (12%) were called active. This excerpt belongs to a sample that is enriched for actives.
parameter.measured: max response (%)
Express it in %; write the number only.

Solved entries (count: 3):
1. O=C(Nc1ncc2c(n1)CC(c1ccco1)CC2=O)c1ccc(Cl)cc1 (stereo not drawn); -2.44
2. COc1ccc(C(CNC(=O)c2cc3c(s2)CCCC3)N2CCOCC2)cc1 (stereo not drawn); 5.2
3. COCCN(C(=S)Nc1cccc(Cl)c1C)C(C)c1ccco1 (stereo not drawn); 5.55

What value of measured max response is listed for CCCCOC(=O)Nc1nnc(CC(=O)NCc2ccccc2)s1 ?
-2.89

What about this compound? CCn1cc(C(=O)N2CC=C(c3ccccc3)CC2)c(=O)c2ccc(C)nc21
7.37

Check CC1CC2=C(CC1/C=N/NC(N)=S)C(C)(C)CCC2 (stereo not drawn) too.
-1.08

====

# assay.details: Cycloheximide Counterscreen for Small Molecule Inhibitors of Shiga Toxin; note: read at 38.3 µM for the half of the compounds with a filed dose
# experimental.setup: cell reporter, cycloheximide protein synthesis inhibition counterscreen; stronger effect = higher value
Screen size: about 300,000 compounds; about 37,000 (12%) were called active. The list comes from a sample in which actives are over-represented; it also holds close analogues and randomly drawn compounds.
parameter.measured: max response (%)
Provide the reading as a plain figure in %.

1. COc1ccc(CCN(C(=O)COc2ccccc2)c2nc(-c3ccccc3)cs2)cc1OC; 5.03

Entry COc1cc(CN2CCC(C(N)=O)CC2)ccc1OCc1ccccc1 has what max response?
34.9

Another compound: COc1cccc(/C=C(/CC(=O)Nc2ccc(N3CCOCC3)cc2)c2nc3ccccc3s2)c1
50.5

// repeat for CN(C(=O)CSc1nc(C2CC2)nc2ccccc12)c1nc(-c2ccccc2)cs1 and report
4.58

Another: COc1ccc(COCC(O)CN2CCC(C(N)=O)CC2)cc1 (stereo not drawn)
-2.46

Request: CCOc1cc(CN2CCN(C(=O)CC(C)C)CC2)ccc1OC
-2.09

Input COc1cc2ccccc2cc1C(=O)Nc1ccc(N2CCOCC2)cc1
8.83

Please do the same for COc1ccc(-c2csc(N3CCN(Cc4ccc5c(c4)OCO5)CC3)n2)cc1 as well.
-4.44

====

# assay.details: Cycloheximide Counterscreen for Small Molecule Inhibitors of Shiga Toxin; note: read at 38.3 µM for the half of the compounds with a filed dose
# experimental.setup: cell reporter, cycloheximide protein synthesis inhibition counterscreen; stronger effect = higher value
Among all 300,000 compounds or so, about 37,000 (12%) were called active. The list comes from a sample in which actives are over-represented; it also holds close analogues and randomly drawn compounds.
parameter.measured: max response (%)
A number alone suffices; assume %.

// below: answered molecules
1) COc1cccc(NC(=O)C(C)Oc2ccccc2)c1 (centres undefined); 4.2
2) Cc1occc1C(=O)NC1CCCN(Cc2ccc(CC(C)C)cc2)C1 (centres undefined); 9.49
3) CC(C)(C)NS(=O)(=O)c1ccc(NC(=O)NC2CCCCC2)cc1; 9
4) CC(=O)N1c2ccc(S(=O)(=O)N3CCC(C(=O)NCc4ccc(F)cc4)CC3)cc2CC1C (centres undefined); -3.6
5) CC(C)c1nc(CNC(=O)CC2C(=O)NCCN2Cc2cccc(F)c2F)cs1 (centres undefined); -2.45
6) CC(C)c1ccc(NC(=O)NC2CCCCC2)cc1; 44.1

Given CC(C)N1CCC(NC(=O)Nc2ccccc2)CC1 , state its recorded max response.
-2.49

Also check CC(C)CNC(=O)C(=O)NCC(c1ccc2c(c1)OCO2)N1CCOCC1 (centres undefined)
-4.38

Thanks! And CC12CN(NC(=O)c3ccc(Cl)cc3)C3(C#N)CC1CCC23C (centres undefined) ?
-3.78

====

# assay.details: Cycloheximide Counterscreen for Small Molecule Inhibitors of Shiga Toxin; note: read at 38.3 µM for the half of the compounds with a filed dose
# experimental.setup: cell reporter, cycloheximide protein synthesis inhibition counterscreen; stronger effect = higher value
About 37,000 (12%) of roughly 300,000 compounds were called active. What follows is part of a selection rich in actives, with near analogues and random picks from the rest.
parameter.measured: max response (%)
Respond with the bare value in %.

Take a look at these entries with their results.
1) Cc1ccc(OCCCCc2c(C)n[nH]c2C)cc1; 7.68
2) C=CCc1ccccc1OCC(=O)N/N=C/c1ccccc1OCC; 9.76
3) O=C1CCC(C(=O)N2CCCCO2)CN1Cc1cccc(C(F)(F)F)c1 (stereo not drawn); 30
4) O=C(c1cccc(N2CCCC2=O)c1)N1CCOCC1; -1.05
5) COc1cc(N2C(=O)CSC2=S)cc(OC)c1OC; -3.84

Please report the recorded max response for CCOc1ccccc1NC(=O)NC1CCCCCCC1 .
10.6

Queued: Cc1ccc(OCCCCN2CCCCC2)c(Br)c1
10.9

Now give it for O=C(Nc1cccn(Cc2ccccc2Cl)c1=O)NC1CCCCC1 too.
10.8

Param item: c1ccc(CCN2CN=C(Nc3nc4ccccc4o3)NC2)cc1
13.2

Then COc1ccc(/C=N/n2nnnc2N)cc1OC ?
1.75

Check Cc1ccc(CN2CCCOCCS2(=O)=O)cc1 too.
0.911

Quick one: O=C(Oc1cccc(O)c1)C1CCCCC1
1.32

Do the same for O=C(/C=C/c1ccc(Cl)c([N+](=O)[O-])c1)c1ccc(O)cc1 please
11.3

Would you mind doing COCC1CCN(C(=O)C2CCC(=O)N(Cc3cccc(C(F)(F)F)c3)C2)CC1 (stereo not drawn) as well?
29.7

Please give the result for NC1=NN(c2cccc(C(=O)O)c2)C(=O)C1 too.
131

What do you have for CCOc1ccc(/C=N/Nc2nncc(-c3ccccc3)n2)cc1OC ?
5.88

Subsequent entry: CCC(C)N1C(=O)S/C(=C/c2ccc(Sc3nc4ccccc4[nH]3)o2)C1=O (stereo not drawn)
8.57

Okay, and Cc1ccc(C(=O)/C=C/c2c(C)nn(-c3ccccc3)c2Cl)cc1 ?
37.8

====

# assay.details: Cycloheximide Counterscreen for Small Molecule Inhibitors of Shiga Toxin; note: read at 38.3 µM for the half of the compounds with a filed dose
# experimental.setup: cell reporter, cycloheximide protein synthesis inhibition counterscreen; stronger effect = higher value
Screen size: about 300,000 compounds; about 37,000 (12%) were called active. For the sample, actives were picked, then their nearest neighbours and some compounds at random.
// 0 (no) strictly below 20% in max response; 1 (yes) otherwise

// known answers, use as guide
1) CCOc1ccc(N(CC(=O)Nc2ccccc2F)S(=O)(=O)c2c(C)[nH]c(=O)[nH]c2=O)cc1; 0 (no)
2) COc1cccc(OCc2cc(/C=N/NC(=O)c3nc(Cl)c(Cl)c(N)c3Cl)ccc2OC)c1; 0 (no)
3) COc1ccc(/C=N/NC(=O)c2ccccc2)cc1OS(=O)(=O)c1ccccc1; 0 (no)
4) O=C(Nc1cccnc1)c1ccc(Cl)cc1[N+](=O)[O-]; 0 (no)
5) O=C(NCc1ccco1)/C(=C\c1cccc([N+](=O)[O-])c1)NC(=O)c1ccco1; 0 (no)

Determine whether this compound has max response no lower than 20%: O=C(N/N=C/c1ccco1)c1csc2c1CCCC2
1 (yes)

Now consider CC(C)CNc1ncnc2c1cnn2Cc1ccc(Cl)cc1 and answer again.
0 (no)

Cool, now COc1ccc(C(=O)NC(=S)Nc2ccc(Cl)cn2)cc1OC
0 (no)

Next compound up: CCOC(=O)c1c(C)[nH]c(C(=O)COc2ccc3c(c2)OCO3)c1C
0 (no)

Next entry: O=C(Nc1ccc(Cl)cn1)c1ccc2c(c1)OCCO2
1 (yes)

What about Cc1ccc(NC(=O)c2csc3c2CCCC3)cc1 ?
1 (yes)

O=C(CN1CCCC1)Nc1sc2c(c1C(=O)Nc1ccccc1)CCCC2 ?
0 (no)

Try this compound next: CCOC(=O)c1nc(-c2ccc3c(c2)OCO3)[nH]c1C
1 (yes)

Please answer likewise for CCOC(=O)N1CCN(c2c(NCCN3CCN(c4ccccc4F)CC3)c(=O)c2=O)CC1
0 (no)

Entry to check: COC(=O)c1sc(NC(=O)c2csc3c2CCCC3)nc1C
1 (yes)

Then CC1CC(C)CN(CCCNC(=O)c2csc3c2CCCCC3)C1 (configuration not stated) ?
0 (no)

Consider next the compound CCOCCCn1c(SCC(=O)Nc2cc(OC)ccc2OC)nc2ccccc2c1=O in the same way.
0 (no)

Can you handle Cc1ccc(NC(=O)c2c(NC(=O)CCC(=O)O)sc3c2CCCCC3)cc1 next?
1 (yes)

// same read-out, input: O=C(N/N=C/c1ccco1)c1ccc(C(=O)N/N=C/c2ccco2)o1
0 (no)

====

# assay.details: Cycloheximide Counterscreen for Small Molecule Inhibitors of Shiga Toxin; note: read at 38.3 µM for the half of the compounds with a filed dose
# experimental.setup: cell reporter, cycloheximide protein synthesis inhibition counterscreen; stronger effect = higher value
Screen size: about 300,000 compounds; about 37,000 (12%) were called active. The entries come from a sample that favours actives as a whole.
Items are presented alongside their recorded max response.
Field: numeric (%). Do not append units.

Past entries and their recorded results:
1. O=C1C(=O)N(CC2COc3ccccc3O2)c2ccccc21 (stereo not drawn); -1.34
2. CC1CCN(C(=O)Cn2cc(C(=O)c3ccco3)c3ccccc32)CC1; 23
3. N#Cc1ccc(Cn2cc(C(=O)c3ccco3)c3ccccc32)cc1; 21.7

Param item = C=CCN1C(=O)C(Cc2cccc(Cl)c2)S/C1=N/N=C/c1ccco1 (stereo not drawn) ; retrieve measured max response.
6.81

// next record CC(C)n1c(=O)[nH]c2cc(C(=O)Nc3ccccc3)ccc21
-2.19

Another molecule: CCc1ccc(-c2nnn(Cc3nc4ccccc4s3)n2)cc1
38.7

What about this molecule? O=C(NC(=S)Nc1ccc(S(=O)(=O)Nc2ncccn2)cc1)c1cccc(Br)c1
5.33

Same read-out for Cc1ccccc1NC(=O)CCNS(=O)(=O)c1ccc2[nH]c(=O)oc2c1 ?
-2.26
